- Assayed target: Perilipin-5 (Homo sapiens) + 1-acylglycerol-3-phosphate O-acyltransferase ABHD5 (Homo sapiens) (UniProt Q00G26+Q8WTS1)
- Sequence (Q00G26 whole entry, looked up): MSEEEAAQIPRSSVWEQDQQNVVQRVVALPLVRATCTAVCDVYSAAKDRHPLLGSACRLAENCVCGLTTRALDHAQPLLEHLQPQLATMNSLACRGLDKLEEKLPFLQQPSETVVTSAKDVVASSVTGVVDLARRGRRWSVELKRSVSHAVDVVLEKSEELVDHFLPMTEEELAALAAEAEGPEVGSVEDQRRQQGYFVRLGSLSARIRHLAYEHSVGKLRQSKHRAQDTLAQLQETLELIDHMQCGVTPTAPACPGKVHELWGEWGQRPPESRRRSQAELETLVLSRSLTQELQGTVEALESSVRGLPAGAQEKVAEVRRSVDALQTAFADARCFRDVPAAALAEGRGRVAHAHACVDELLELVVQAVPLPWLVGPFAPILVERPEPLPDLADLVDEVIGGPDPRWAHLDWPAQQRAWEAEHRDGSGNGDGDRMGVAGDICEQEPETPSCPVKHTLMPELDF
- Sequence (Q8WTS1 whole entry, looked up): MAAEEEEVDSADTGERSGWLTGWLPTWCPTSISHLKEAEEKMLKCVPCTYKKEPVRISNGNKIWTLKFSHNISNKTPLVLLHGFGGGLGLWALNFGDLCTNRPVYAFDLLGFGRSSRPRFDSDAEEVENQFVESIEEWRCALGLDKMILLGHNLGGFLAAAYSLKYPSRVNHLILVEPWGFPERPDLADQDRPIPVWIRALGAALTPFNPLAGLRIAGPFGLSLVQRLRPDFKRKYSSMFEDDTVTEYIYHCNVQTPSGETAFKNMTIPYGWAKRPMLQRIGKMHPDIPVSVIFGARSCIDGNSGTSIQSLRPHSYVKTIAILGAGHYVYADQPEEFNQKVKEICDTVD
- Procedure details: ABHD5-PLIN5 interaction inhibitors, primary screen, cell lysate, split luciferase complementation, luminescence (AID 602281);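 further: 0% = DMSO only wells and the 100% control is not disclosed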
- Condition set: Split G. princeps luciferase complementation, 4 h, at 4 µM, hits give high values
The campaign covered roughly 360,000 compounds. About 2,900 (0.81%) were called active. Many of the other results were omitted from the sample, so actives are more common in it than they were.
The threshold is inclusive: inhibition of exactly 5% counts as MET; values below receive NOT MET.

1. Cc1ccc(Cn2c(C)c3cnn(CC(=O)N4CCC5(CC4)OCCO5)c(=O)c3c2C)cc1	MET
2. COc1ccc(CN2C(=O)NC(=O)/C(=C\c3ccc(OC)c(OC)c3OC)C2=O)cc1	MET
3. Cc1ccc(S(=O)(=O)N(C)c2ccc(C(=O)NCC3(N(C)C)CCCCC3)cc2)cc1	NOT MET
4. CC(C)N(CC#CCC1(O)c2ccccc2-c2ccccc21)C(C)C	NOT MET
5. CCC(=O)CC(c1ccc([N+](=O)[O-])cc1)c1c(O)c2ccccc2oc1=O (stereo not given)	MET

---

- Assayed target: Perilipin-5 (Homo sapiens) + 1-acylglycerol-3-phosphate O-acyltransferase ABHD5 (Homo sapiens) (UniProt Q00G26+Q8WTS1)
- Procedure details: ABHD5-PLIN5 interaction inhibitors, primary screen, cell lysate, split luciferase complementation, luminescence (AID 602281);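 further: 0% = DMSO only wells and the 100% control is not disclosed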
- Condition set: Split G. princeps luciferase complementation, 4 h, at 4 µM
Hit rate of the full screen: of about 360,000 compounds, about 2,900 (0.81%) were called active.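 Rule for the calls: active = inhibition above the mean inhibition across every tested compound plus 3 SD (cut at about 22% in these data); inactive = the rest.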 This excerpt belongs to a sample that is enriched for actives.
Possible outcomes: true (1) = active, false (0) = inactive

1) CCc1cccc2c(C#N)cn(CC(=O)N3CCOCC3)c12	false (0)
2) CN(C)CC1Oc2ccccc2OC1(O)c1ccccc1 (stereo not given)	true (1)
3) O=c1[nH]c(=O)n(-c2ccc(F)cc2)c(O)c1C=NCCN1CCCCC1	false (0)
4) N#Cc1ccc(Cn2cc(C(=O)c3ccco3)c3ccccc32)cc1	false (0)
5) Cc1ccc(C)c(NC2=NCCCS2)c1	false (0)
6) CCN1CC2C3CCC(C)(O3)C2C1 (stereo not given)	false (0)
7) Cc1ccc(-c2cc(C(=O)N3CCC4(CC3)OCCO4)no2)cc1	false (0)
8) Cc1cccc(N2C(=O)NC(=O)/C(=C\c3cnn(-c4ccccc4)c3)C2=O)c1	true (1)
9) CCOC(=O)[C@]12Cc3cc(OC)ccc3[C@H]1N(C(C)C)C(=O)c1ccccc12	false (0)
10) O=C(COC(=O)c1ccccc1)Nc1ccc(Cl)cc1C(=O)c1ccccc1	false (0)
